From: ChEMBL document CHEMBL1212925

testSystem: Steroid 17-alpha-hydroxylase/17,20 lyase (Homo sapiens, UniProt P05093)
Sequence (P05093 whole entry): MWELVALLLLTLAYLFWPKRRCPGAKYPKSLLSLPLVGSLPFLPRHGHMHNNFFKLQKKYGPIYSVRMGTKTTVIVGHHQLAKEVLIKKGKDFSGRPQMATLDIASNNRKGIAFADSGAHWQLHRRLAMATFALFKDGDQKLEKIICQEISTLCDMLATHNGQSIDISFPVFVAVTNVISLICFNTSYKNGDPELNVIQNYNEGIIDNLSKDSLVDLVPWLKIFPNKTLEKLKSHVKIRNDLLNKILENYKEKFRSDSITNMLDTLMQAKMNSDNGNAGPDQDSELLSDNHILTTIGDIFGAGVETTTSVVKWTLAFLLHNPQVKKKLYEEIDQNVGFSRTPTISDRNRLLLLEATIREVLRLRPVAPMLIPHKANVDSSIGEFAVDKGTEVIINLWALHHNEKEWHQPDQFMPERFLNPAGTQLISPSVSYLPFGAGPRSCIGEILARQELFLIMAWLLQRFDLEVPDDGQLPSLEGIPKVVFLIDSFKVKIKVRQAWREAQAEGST
pIC50: −log10 of the molar value.
Please enter met where pIC50 is greater than or equal to 6, and not met where it is lower.

compound	cat
c1csc(-c2ccc(Cc3ccncc3)cc2)c1	met
CC(C)(C)OC(=O)Nc1ccc(-c2ccc(Cc3ccncc3)cc2)cc1F	not met
Oc1ccc(-c2ccc(C(O)n3ccnc3)cc2)cc1 (stereo not drawn)	not met
CCC(c1ccncc1)c1ccc(-c2ccc(OC)cc2)cc1 (stereo not drawn)	not met
Oc1ccc(-c2ccc(Cc3ccncc3)cc2)cc1	met
c1cc(Cc2ccc(-c3ccsc3)cc2)ccn1	met

---

Known IC50 of a selection of compounds
Target protein (sequence): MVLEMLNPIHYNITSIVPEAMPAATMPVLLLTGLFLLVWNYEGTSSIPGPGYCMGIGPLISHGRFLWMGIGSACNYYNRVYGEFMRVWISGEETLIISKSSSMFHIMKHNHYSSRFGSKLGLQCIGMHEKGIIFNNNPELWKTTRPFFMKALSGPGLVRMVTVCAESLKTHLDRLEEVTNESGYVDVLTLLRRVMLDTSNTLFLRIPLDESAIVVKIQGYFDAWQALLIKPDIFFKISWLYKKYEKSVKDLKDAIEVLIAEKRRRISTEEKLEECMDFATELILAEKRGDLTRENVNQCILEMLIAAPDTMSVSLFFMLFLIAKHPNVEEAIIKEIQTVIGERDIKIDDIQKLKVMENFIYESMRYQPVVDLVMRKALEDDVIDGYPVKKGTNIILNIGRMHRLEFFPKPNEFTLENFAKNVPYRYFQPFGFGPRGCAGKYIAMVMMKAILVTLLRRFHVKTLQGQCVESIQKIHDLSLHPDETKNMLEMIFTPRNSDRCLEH
propertyLabel: IC50 (µM)

testSmiles	propertyLabel	measurementUnits	signQualifier	recordedResult
Nc1ccc(-c2ccc(Cc3ccncc3)cc2)cc1N	IC50	µM	>	25
Oc1ccc(-c2ccc(Cc3ccncc3)cc2)cc1F	IC50	µM	=	2.69
Nc1ccc(-c2ccc(Cc3ccncc3)cc2)cc1	IC50	µM	=	24.5

---

pIC50: −log10 of the molar value.
The following molecules each carry a recorded pIC50 for UniProtKB P15538.
Sequence (P15538 whole entry): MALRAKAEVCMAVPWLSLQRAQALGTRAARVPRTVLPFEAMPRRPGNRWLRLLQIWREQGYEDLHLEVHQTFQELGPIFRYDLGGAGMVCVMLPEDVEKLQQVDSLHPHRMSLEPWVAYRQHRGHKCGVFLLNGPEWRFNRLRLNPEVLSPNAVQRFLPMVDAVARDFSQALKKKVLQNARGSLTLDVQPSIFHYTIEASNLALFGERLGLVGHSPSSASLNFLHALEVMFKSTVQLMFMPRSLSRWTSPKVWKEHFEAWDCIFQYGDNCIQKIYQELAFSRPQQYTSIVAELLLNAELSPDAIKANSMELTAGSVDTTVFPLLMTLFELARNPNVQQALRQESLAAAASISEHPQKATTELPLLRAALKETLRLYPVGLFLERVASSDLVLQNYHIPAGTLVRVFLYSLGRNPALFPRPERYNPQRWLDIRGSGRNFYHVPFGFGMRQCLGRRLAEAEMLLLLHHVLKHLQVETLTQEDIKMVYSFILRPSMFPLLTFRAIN
propertyLabel: pIC50

testSmiles	recordedResult
Oc1ccc2cc(-c3ccc(Cc4ccncc4)cc3)ccc2c1	6.20
Nc1ccc(-c2ccc(Cc3ccncc3)cc2)cc1N	6.04
Fc1ccc(-c2ccc(Cc3ccncc3)cc2)cc1F	5.32

---

Target sequence: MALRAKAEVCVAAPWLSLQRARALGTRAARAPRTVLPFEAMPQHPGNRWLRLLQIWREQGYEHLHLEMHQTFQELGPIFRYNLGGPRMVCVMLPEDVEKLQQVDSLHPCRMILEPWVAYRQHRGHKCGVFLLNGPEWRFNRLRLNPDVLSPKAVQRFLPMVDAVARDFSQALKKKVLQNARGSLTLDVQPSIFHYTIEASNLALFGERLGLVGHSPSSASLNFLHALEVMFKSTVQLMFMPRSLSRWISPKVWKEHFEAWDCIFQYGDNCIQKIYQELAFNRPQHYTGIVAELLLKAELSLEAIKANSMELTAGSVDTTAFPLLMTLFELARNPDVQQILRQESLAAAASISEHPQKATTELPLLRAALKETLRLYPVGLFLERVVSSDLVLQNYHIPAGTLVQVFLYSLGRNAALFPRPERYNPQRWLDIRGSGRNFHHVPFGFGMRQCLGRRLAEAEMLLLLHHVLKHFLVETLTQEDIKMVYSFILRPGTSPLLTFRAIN
propertyLabel: IC50 (nM)

testSmiles	measurementUnits	recordedResult
c1cc(Cc2ccc(-c3ccc4[nH]ccc4c3)cc2)ccn1	nM	231
Nc1ccc(-c2ccc(Cc3ccncc3)cc2)cc1	nM	406
c1cc(Cc2ccc(-c3ccsc3)cc2)ccn1	nM	331
